Please find below IC50 data on UniProtKB Q9Y233 compiled from the literature.
The label is condition met for IC50 below 10 nM and condition not met for IC50 equal to or exceeding 10 nM.

# COMPOUND, LABEL_VALUE
data = [
    ("CN(CCO)C(=O)c1nn(C)cc1NC(=O)c1nc(C2CC2)ccc1Nc1cncnc1", "condition met"),
    ("CC1(C)C(=O)N([C@H]2C[C@H](Nc3nc4ccccc4s3)C2)c2ncccc21", "condition met"),
    ("COc1cccn2nc(CCc3nc(-c4cncs4)cn3C)nc12", "condition not met"),
    ("CCc1ccc(NC(=O)c2nc(C3CC3)cnc2Nc2cncnc2)c(C(=O)NC)n1", "condition met"),
    ("CN1CC(NC(=O)c2c(NC(=O)c3nc(C4CC4)cnc3Nc3cncnc3)cnn2C)C1", "condition not met"),
    ("Cn1ncc(C(=O)N2CCC2)c1C(=O)Nc1ccc2nc(-c3cscn3)nn2c1", "condition met"),
    ("Cc1nc2ccc(C(C)C)nc2n2c(-c3cc(O)ccc3F)nnc12", "condition met"),
    ("CCn1nc(CCc2nc3c(C)ncc(C)n3n2)nc1N1CCCC1", "condition not met"),
    ("Cn1cc(NC(=O)c2nc(C3CC3)ccc2Nc2cncnc2)c(C(=O)NCC(C)(C)O)n1", "condition met"),
    ("O=C1N([C@H]2C[C@H](Nc3nc4ccccc4s3)C2)c2ncc(Cl)cc2C1(F)F", "condition met"),
    ("Cc1ncc(C)n2nc(CCc3ccc4cc(Cl)ccc4n3)nc12", "condition not met"),
    ("Cn1ncc(-c2nc(C(F)(F)F)cs2)c1C(=O)Nc1ccn2nc(N3CC[C@H](F)C3)nc2c1", "condition met"),
    ("CNC(=O)c1cc2nc(C)c(C)n2nc1C#Cc1nc(N2CCCC2)nn1C", "condition not met"),
    ("O=c1n(C2CC2)c2nccnc2n1[C@H]1C[C@H](Nc2ncc3ccccc3n2)C1", "condition not met"),
    ("Cc1cc(CCc2nc(N3CCCC3)nn2C)nn2c(C)c(C(F)(F)F)nc12", "condition not met"),
    ("O=C(NC1(c2ccc(C(F)(F)F)cc2F)COCC1O)c1cnn2cc(C3CC3)cnc12 (single isomer, unassigned)", "condition not met"),
    ("Cc1nc2cccnc2n2c(-c3cc(O)ccc3Cl)nnc12", "condition not met"),
    ("Cc1nc2ccc(C3CC3)nc2n2c(-c3cc(C(C)(C)O)ccc3Cl)nnc12", "condition not met"),
]
